Each entry below carries its reported Hepatocyte Stability Mouse QH.
# EXPERIMENT: Hepatocyte stability, mice
# Assay type: in vitro ADME
# COND: mouse, pH 7.4
*1 amine or outer side, *2 acyl side, *3 side chain or, on linkers, in order; H or OH if unused. Where a SMILES comes first, the peptide text is derived from it. [ ]: non-standard residue; d: D form. X2 = C#CCn1cc(C[C@@H](C(=O)[*:2])N(C)[*:1])c2ccccc21; NMeTrp(1-Me) = CN[C@@H](Cc1cn(C)c2ccccc12)C(=O)O; X4 = C=CCO[C@H](c1ccccc1)[C@H](N[*:1])C(=O)[*:2]; NMeLeu(5-OH,4R) = CN[C@@H](C[C@@H](C)CO)C(=O)O; Phe(βR-OMe) = CO[C@H](c1ccccc1)[C@H](N)C(=O)O; Trp(1-Me) = Cn1cc(C[C@H](N)C(=O)O)c2ccccc21; NMeL = CN[C@@H](CC(C)C)C(=O)O; Pra = C#CC[C@H](N)C(=O)O
Your answer should be a plain number; it is taken to be in %.

Answered examples (3):
{"COMPOUND": "C#CCn1cc(C[C@H]2C(=O)N(C)[C@@H](C[C@@H](C)CO)C(=O)N[C@@H](C)C(=O)N[C@@H]([C@H](OC)c3ccccc3)C(=O)N[C@@H](C(C)C)C(=O)N(C)[C@@H](CC(C)C)C(=O)N[C@@H](C(C)C)C(=O)N2C)c2ccccc21 [Compound 26] (cyclo(A[Phe(βR-OMe)]V[NMeL]V[X2][NMeLeu(5-OH,4R)]))", "READING UNIT": "%", "Hepatocyte Stability Mouse QH": 66.557}
{"COMPOUND": "CO[C@H](c1ccccc1)[C@@H]1NC(=O)[C@H](C)NC(=O)[C@H](C[C@@H](C)CO)N(C)C(=O)[C@H](Cc2cn(C)c3ccccc23)N(C)C(=O)[C@H](CCC(=O)N(C)C)NC(=O)[C@H](CC(C)C)N(C)C(=O)[C@H](C(C)C)NC1=O [SI-76] (cyclo(A[Phe(βR-OMe)]V[NMeL]E(NMe2)[NMeTrp(1-Me)][NMeLeu(5-OH,4R)]))", "READING UNIT": "%", "Hepatocyte Stability Mouse QH": 23.483}
{"COMPOUND": "C=CCO[C@H](c1ccccc1)[C@@H]1NC(=O)[C@H](C)NC(=O)[C@H](C[C@@H](C)CO)N(C)C(=O)[C@H](Cc2cn(C)c3ccccc23)NC(=O)[C@H](C(C)C)NC(=O)[C@H](CC(C)C)N(C)C(=O)[C@H](C(C)C)NC1=O [Compound 14] (cyclo(A[X4]V[NMeL]V[Trp(1-Me)][NMeLeu(5-OH,4R)]))", "READING UNIT": "%", "Hepatocyte Stability Mouse QH": 28.905}

Respond only with Hepatocyte Stability Mouse QH recorded for C#CC[C@@H]1NC(=O)[C@H](CC(C)C)N(C)C(=O)[C@H](C(C)C)NC(=O)[C@H]([C@H](OC)c2ccccc2)NC(=O)[C@H](C)NC(=O)[C@H](C[C@@H](C)CO)N(C)C(=O)[C@H](Cc2cn(C)c3ccccc23)N(C)C1=O [Compound 20] (cyclo(A[Phe(βR-OMe)]V[NMeL][Pra][NMeTrp(1-Me)][NMeLeu(5-OH,4R)])) 58.928
